- Tested on: WI 38
- MEASUREMENT NOTES: MTT cytotoxicity assay, normal lung fibroblast WI 38
- Assay type: cell-based
- CONDITION NOTES: Homo sapiens, 48 h
OBSERVED PROPERTY: IC50 (µM)

In [3]: df
Out[3]:
                                   molecule  observed_property  observed_value
0  CC(=NN=Cc1ccc(N(C)C)cc1)c1nn(-c2ccc(S(N)(=O)=O)cc2)c(=N)s1               IC50            49.8
1  COc1cc(OC)c(C=NN=C(C)c2nn(-c3ccc(S(N)(=O)=O)cc3)c(=N)s2)c(OC)c1               IC50            25.4
2  CC(=NN=C1C(=O)Nc2ccccc21)c1nn(-c2ccc(S(N)(=O)=O)cc2)c(=N)s1               IC50            11.4
3  CCN(CC)CN1C(=O)C(=NN=C(C)c2nn(-c3ccc(S(N)(=O)=O)cc3)c(=N)s2)c2ccccc21 [Compound 15b]               IC50            16.8

---

This section presents compounds with their documented IC50 values.
- Tested on: Caco2
- MEASUREMENT NOTES: MTT cytotoxicity assay, Caco2
- Assay type: cell-based
- CONDITION NOTES: Homo sapiens, Caco-2, colon cancer Caco2, 48 h
- Protocol: HepG2, MCF-7, WI 38, Caco-2 cancer cell lines were cultured in complete media of RPMI and DMEM, respectively, at 5% carbon dioxide and 37 °C following standard tissue culture work. […] The percentage of cell viability was calculated following this equation: […]. An ELISA microplate reader was used to measure the absorbance at 690 nm to calculate the viability versus concentration, and the IC50 value using GraphPad prism software.
OBSERVED PROPERTY: IC50 (µM)

In [3]: df
Out[3]:
                                   compound  observed_property  value_unit  observed_value
0  CC(=NN=Cc1ccc([N+](=O)[O-])cc1)c1nn(-c2ccc(S(N)(=O)=O)cc2)c(=N)s1 [Compound 7c]               IC50          µM            3.37
1  CC(=NN=Cc1ccco1)c1nn(-c2ccc(S(N)(=O)=O)cc2)c(=O)s1 [Compound 11]               IC50          µM            8.55
2  CC(=NN=C1C(=O)N(CN(C)C)c2ccccc21)c1nn(-c2ccc(S(N)(=O)=O)cc2)c(=N)s1 [Compound 15a]               IC50          µM            2.33
3  CCN(CC)CN1C(=O)C(=NN=C(C)c2nn(-c3ccc(S(N)(=O)=O)cc3)c(=N)s2)c2ccccc21 [Compound 15b]               IC50          µM            0.78
4  COc1ccc(C=NN=C(C)c2nn(-c3ccc(S(N)(=O)=O)cc3)c(=N)s2)cc1 [Compound 7a]               IC50          µM            3.16
5  CC(=NN=C1C(=O)Nc2ccccc21)c1nn(-c2ccc(S(N)(=O)=O)cc2)c(=N)s1 [Compound 13]               IC50          µM            8.99
6  COc1cc(OC)c(C=NN=C(C)c2nn(-c3ccc(S(N)(=O)=O)cc3)c(=N)s2)c(OC)c1 [Compound 9]               IC50          µM            47.2
7  CC(=NN=Cc1ccc(N(C)C)cc1)c1nn(-c2ccc(S(N)(=O)=O)cc2)c(=N)s1 [Compound 7b]               IC50          µM            33.6

---

- System: WI 38
- MEASUREMENT NOTES: MTT cytotoxicity assay, normal lung fibroblast WI 38
- Type: cell-based
- CONDITION NOTES: Homo sapiens, 48 h
OBSERVED PROPERTY: IC50

>>> df
                                   compound  observed_value
0  CC(=NN=Cc1ccco1)c1nn(-c2ccc(S(N)(=O)=O)cc2)c(=O)s1         24.5 µM
1  COc1ccc(C=NN=C(C)c2nn(-c3ccc(S(N)(=O)=O)cc3)c(=N)s2)cc1         28.2 µM
2  CC(=NN=C1C(=O)N(CN(C)C)c2ccccc21)c1nn(-c2ccc(S(N)(=O)=O)cc2)c(=N)s1 [Compound 15a]         13.4 µM
3  CC(=NN=Cc1ccc([N+](=O)[O-])cc1)c1nn(-c2ccc(S(N)(=O)=O)cc2)c(=N)s1         25.4 µM
